Where these numbers come from: patent US8889702B2

As shown below, each of these compounds has a reported melting point value.

// worked examples, melting point included
COMPOUND: CNC(=O)c1cc(COC(=O)NC2CC3(CCN(c4ccc(-c5ccc(F)cc5)cn4)C3)C2)on1 (single isomer, unassigned) [Compound 17]
melting point: 203 to 205 °C

COMPOUND: CNC(=O)c1cc(COC(=O)NCC2CC3(CCN(c4ccc(-c5ccc(F)cc5)cn4)C3)C2)on1 (single isomer, unassigned) [Compound 12]
melting point: 171 to 173 °C

COMPOUND: CNC(=O)c1cc(COC(=O)NC2CC3(CCN(c4ccc(-c5ccc(F)cc5)cn4)CC3)C2)on1
melting point: 219 to 221 °C

Ask | GET /values?readout=melting point&item= NC(=O)c1cc(COC(=O)NC2CC3(CCN(c4ccc(-c5ccc(F)cc5)cn4)CC3)C2)on1
Reply | 216 to 218 °C

Ask | Param item: CC(C)Cc1ccc(N2CCC3(CC2)CC(NC(=O)OCc2cc(C(N)=O)no2)C3)nc1
Reply | 178 to 180 °C

Ask | Further, for NC(=O)c1cc(COC(=O)NCC2CC3(CCN(c4ccc5cc(F)ccc5n4)CC3)C2)on1 ?
Reply | 190 to 192 °C

Ask | And the next one, CNC(=O)c1cc(COC(=O)NCC2CC3(CCN(c4ccc(-c5ccc(F)cc5)cn4)C3)C2)on1 (single isomer, unassigned) [Compound 13] ?
Reply | 180 to 182 °C

Ask | Same for CNC(=O)c1cc(COC(=O)NC2CC3(CCN(c4ccc(-c5ccc(F)cc5)cn4)C3)C2)on1 (single isomer, unassigned) [Compound 18]
Reply | 194 to 196 °C

====

Molecular target: enzyme FAAH (Fatty Acid Amide Hydrolase) (Mus musculus)
Sequence (O08914 1-579): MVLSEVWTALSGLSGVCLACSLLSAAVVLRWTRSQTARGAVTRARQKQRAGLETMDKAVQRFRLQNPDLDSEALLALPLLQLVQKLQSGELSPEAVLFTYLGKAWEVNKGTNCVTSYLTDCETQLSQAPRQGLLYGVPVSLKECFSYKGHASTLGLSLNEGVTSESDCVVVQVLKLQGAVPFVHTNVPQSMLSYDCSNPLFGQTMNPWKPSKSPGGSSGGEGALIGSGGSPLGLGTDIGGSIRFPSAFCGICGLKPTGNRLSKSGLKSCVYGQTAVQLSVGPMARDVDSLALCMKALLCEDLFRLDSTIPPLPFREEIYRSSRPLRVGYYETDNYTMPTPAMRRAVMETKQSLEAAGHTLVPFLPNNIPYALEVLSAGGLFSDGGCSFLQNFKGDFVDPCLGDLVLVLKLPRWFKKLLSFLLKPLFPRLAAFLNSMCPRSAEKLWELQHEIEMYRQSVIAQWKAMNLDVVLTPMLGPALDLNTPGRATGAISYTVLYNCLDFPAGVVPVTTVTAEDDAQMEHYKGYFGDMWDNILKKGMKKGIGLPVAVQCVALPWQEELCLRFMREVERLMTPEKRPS
OBSERVATION TYPE: IC50 (nM)

MOLECULE: CNC(=O)c1cc(COC(=O)NC2CC3(CCN(c4ccc5cc(Cl)ccc5n4)CC3)C2)on1
IC50 / nM: 1.8

A: CNC(=O)c1cc(COC(=O)NCC2CC3(CCN(c4ccc(-c5ccc(F)cc5)cn4)C3)C2)on1 (single isomer, unassigned)
B: CC(C)Cc1ccc(N2CCC3(CC2)CC(NC(=O)OCc2cc(C(N)=O)no2)C3)nc1
Ask | Just tell me: smaller IC50 value, A or B ? Pick one; state its label.
Reply | A
(A: 0.85 nM, B: 4.3 nM)

====

IC50 values by entry
Biological target: enzyme FAAH (Fatty Acid Amide Hydrolase) (Mus musculus, UniProt O08914)
Express your answer in nM, writing the number without its unit.

As a guide, the following entries are already answered.
COMPOUND: NC(=O)c1cc(COC(=O)NC2CC23CCN(c2nccc(C(F)(F)F)n2)CC3)on1 (stereo not shown)
UNIT OF MEASUREMENT: nM
MEASURED NUMBER: 0.5

COMPOUND: NC(=O)c1cc(COC(=O)NC2CC3(CCN(c4ccc(-c5ccc(F)cc5)cn4)C3)C2)on1 (mixture of isomers)
UNIT OF MEASUREMENT: nM
MEASURED NUMBER: 2.3

COMPOUND: NC(=O)c1cc(COC(=O)NC2CC3(CCN(c4cncc(-c5ccc(F)cc5)n4)CC3)C2)on1
UNIT OF MEASUREMENT: nM
MEASURED NUMBER: 1.7

In the following, a different compound is considered.
Ask | # input compound: NC(=O)c1cc(COC(=O)NC2CC3(CCN(c4ccc(Br)cn4)CC3)C2)on1 ; wanted: its IC50
Reply | 8.2
